The measured values listed here are drawn from patent US9326506B2.

System: rice
Assay: Low temperature assay on rice seedlings
Format: in vivo
Settings: 0.0001 mg/l, 1 °C, 3 days
// values below are reported Height
The response must be a number in cm with no trailing unit.

Example compounds with recorded Height:
>>> measured_number("CC[C@@H](C(C)C)[C@@H](O)[C@H](O)[C@@H](C)[C@H]1CCC2C3COC(=O)C4C[C@H](O)[C@H](O)C[C@]4(C)C3CC[C@@]21C (stereo partly drawn)")
6.8
>>> measured_number("CC(C)(O)CC[C@@H](O)[C@](C)(O)[C@H]1CC[C@@]2(O)[C@@H]3CC(=O)[C@@H]4C[C@@H](O)[C@@H](O)C[C@]4(C)[C@H]3CC[C@]12C")
7.1
>>> measured_number("CC(C)[C@H](C)[C@@H](O)[C@H](O)[C@@H](C)[C@H]1CCC2C3COC(=O)C4C[C@H](O)[C@H](O)C[C@]4(C)C3CC[C@@]21C (stereo partly drawn)")
7.1
>>> measured_number("C=C(C(C)C)[C@@H](O)[C@H](O)[C@@H](C)[C@H]1CCC2C3COC(=O)C4C[C@H](O)[C@H](O)C[C@]4(C)C3CC[C@@]21C (stereo partly drawn)")
6.8
>>> measured_number("CC(C)C[C@@H](O)[C@H](O)[C@@H](C)[C@H]1CCC2C3CC(=O)C4C[C@H](O)[C@H](O)C[C@]4(C)C3CC[C@@]21C (stereo partly drawn)")
6.8

Attention now shifts to the item below.
Data request: Returns the measured Height for the input compound. Input: CC(C)[C@H](C)[C@@H](O)[C@H](O)[C@@H](C)[C@H]1CCC2C3CC(=O)C4C[C@H](O)CC[C@]4(C)C3CC[C@@]21C (stereo partly drawn)
Data returned: 6.8
